assay: Antiinflammatory activity in human neutrophils assessed as inhibition of fMLP/Cytochalasin B-induced elastase release; format: functional, cell-based; settings: Neutrophil
pIC50: −log10 of the molar value.
quantity: pIC50

Worked set:
CC[C@@H]1OC(=O)c2c1cc(OC)c(OC)c2O; < 4.30
O=S(=O)(F)Cc1ccccc1 [PHENYLMETHYLSULFONYLFLUORIDE]; 3.69
COc1cc([C@@H]2OC[C@@H]3[C@H]2CO[C@H]3c2cc(OC)c(O)c(OC)c2)cc(OC)c1O; < 4.30

Continue with the compound presented below.
Problem: // pIC50 lookup, key: C/C=C1\OC(=O)c2c1ccc(OC)c2OC
Solution: 4.47

====

Measured IC50 values are reported for all entries that follow.
assay: Antiinflammatory activity in human neutrophils assessed as inhibition of fMLP/Cytochalasin B-induced elastase release; type: functional, cell-based; conditions: Neutrophil

CC[C@@H]1OC(=O)c2c1ccc(OC)c2O; > 50 µM
COc1cc2ccc(=O)oc2c(OC)c1OC; > 50 µM
COc1cc2ccc(=O)oc2cc1OC; > 50 µM

Problem: Look at this molecule and give its reported IC50. CC[C@@H]1OC(=O)c2c1cc(OC)c(OC)c2OC
Solution: > 50 µM

Problem: Data request, read-out IC50, for C/C=C1\OC(=O)c2c1ccc(OC)c2O
Solution: 38.6 µM

Problem: # lookup: IC50 of CC[C@H]1OC(=O)c2c1ccc(OC)c2O
Solution: > 50 µM
